// data source = patent US20030022821A1

Test system: normal fibroblasts
Assay type: cell-based
Ends that are not written are not given here.
property-measured: pIC50
# pIC50 = -log10(concentration in molar units)

Recorded results for 5 substances are shown here.
- substance: "PAIRKAFRIAIRMLKKAA-OH"
  recorded-measurement: 3.55
- substance: "PAWRKAFRWAKRMLKKAA-OH [LFB 14-31A2,6, 10, 17F7K11, 16L14R4]"
  recorded-measurement: 4.51
- substance: "PAIRKAFRWAIRMLKKAA-OH [LFB 14-31A2,6, 10, 17F7I3, 11K16L14R4]"
  recorded-measurement: 4.35
- substance: "PAWRKAARWAWRMLKKAA-OH [LFB 14-31A2,6, 10, 17F7K16L14R4 F7 → A7]"
  recorded-measurement: 3.54
- substance: "PAWRKAFRWAWRMLKKAA-OH [LFB 14-31A2,6, 10, 17F7K16L14R4]"
  recorded-measurement: 4.77

[Q] What value of measured pIC50 is listed for PAIRKAFRIAWRMLKKAA-OH [LFB 14-31A2,6, 10, 17F7I3, 9K16L14R4] ?
[A] 3.97

[Q] Recorded pIC50 for PAIRKAFRWAWRMLKKAA-OH [LFB 14-31A2,6, 10, 17F7I3K16L14R4] , please?
[A] 4.70

[Q] Entry PAWRKAFRAAWRMLKKAA-OH [LFB 14-31A2,6,9, 10, 17F7K16L14R4] has what pIC50?
[A] 4.33

[Q] Request the reported pIC50 associated with PAWRKAFRWAARMLKKAA-OH [LFB 14-31A2,6, 10, 11, 17F7K16L14R4]
[A] 4.33

[Q] Which pIC50 is listed for PAWRKAFRIAWRMLKKAA-OH [LFB 14-31A2,6, 10, 17F7I9K16L14R4] ?
[A] 4.59

[Q] pIC50 lookup needed for PAKRKAFRWAWRMLKKAA-OH [LFB 14-31A2,6, 10, 17F7K3, 16L14R4] , thanks.
[A] 3.64

[Q] # query: pIC50 of entry PAWRKAFRWAIRMLKKAA-OH [LFB 14-31A2,6, 10, 17F7I11K16L14R4]
[A] 4.82

[Q] Please give the measured pIC50 for this substance: PAARKAFRWAWRMLKKAA-OH [LFB 14-31A2,3,6, 10, 17F7K16L14R4]
[A] 3.72

[Q] pIC50 for PAWRKAFRKAWRMLKKAA-OH [LFB 14-31A2,6, 10, 17F7K9, 16L14R4] ?
[A] 4.23

[Q] Which pIC50 is reported for this substance? PAWRKAFRIAIRMLKKAA-OH [LFB 14-31A2,6, 10, 17F7I9, 11K16L14R4]
[A] 4.59
